Molecular target: human uPAR (uPAR-Fc) (Homo sapiens)
Construct: comprising amino acids Leu23-Arg303 according to UniProt entry Q03405.1; purchased R&D Systems 10378-UK-100
Sequence (Q03405 23-303): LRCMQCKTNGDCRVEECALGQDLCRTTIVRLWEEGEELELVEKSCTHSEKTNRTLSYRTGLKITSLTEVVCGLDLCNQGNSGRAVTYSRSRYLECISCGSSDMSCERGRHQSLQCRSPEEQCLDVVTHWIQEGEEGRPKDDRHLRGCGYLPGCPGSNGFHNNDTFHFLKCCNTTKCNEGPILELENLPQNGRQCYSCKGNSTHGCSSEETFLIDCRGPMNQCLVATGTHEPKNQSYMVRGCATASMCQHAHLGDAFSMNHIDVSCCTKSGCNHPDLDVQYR
Test: Surface plasmon resonance (SPR) assay, single cycle kinetics
Type: binding
Conditions: pKD category for uPAR SPR activity assay; uPAR-Fc on Protein A-Chip, 25°C; read-out: pKD CAT (converted)
Where a SMILES comes first, the peptide text is derived from it. Bridges are numbered along the chain shown (N, C = ends). [ ]: non-standard residue; d: D form. The star is where a group is joined. DOTA = O=C(O)CN1CCN(CC(=O)O)CCN(CC(=O)*)CCN(CC(=O)O)CC1; Phe(4-NH2) = Nc1ccc(C[C@H](N)C(=O)O)cc1; Hyp = O=C(O)[C@@H]1C[C@@H](O)CN1; Cit = NC(=O)NCCC[C@H](N)C(=O)O; Nva = CCC[C@H](N)C(=O)O; Pentanoyl = CCCCC(=O)*
endpoint label: Kd

Value lookup for Kd; key = CCCCC(=O)N[C@H]1CSSC[C@@H](C(N)=O)NC(=O)[C@H](CCC)NC(=O)[C@H]([C@@H](C)CC)NC(=O)[C@@H]2C[C@@H](O)CN2C(=O)[C@@H]2CCCN2C(=O)[C@H](Cc2ccccc2)NC(=O)[C@H](Cc2ccc(N)cc2)NC(=O)[C@H](CCCCNC(=O)CN2CCN(CC(=O)O)CCN(CC(=O)O)CCN(CC(=O)O)CC2)NC(=O)[C@H](CCCNC(N)=O)NC1=O [UPAR-320] (Pentanoyl-C[Cit]K(DOTA)[Phe(4-NH2)]FP[Hyp]I[Nva]C-NH2; disulfide 1-10)
< 1.58 nM

====

Hi there, I'd appreciate the recorded Kd for every entry that follows.
Target: human uPAR (uPAR-Fc) (Homo sapiens)
Construct: comprising amino acids Leu23-Arg303 according to UniProt entry Q03405.1; purchased R&D Systems 10378-UK-100
Assay: Surface plasmon resonance (SPR) assay, single cycle kinetics
Assay type: binding
Conditions: pKD category for uPAR SPR activity assay; uPAR-Fc on Protein A-Chip, 25°C; read-out: pKD CAT (converted)
Where a SMILES comes first, the peptide text is derived from it. Bridges are numbered along the chain shown (N, C = ends). [ ]: non-standard residue; d: D form. The star is where a group is joined. Hyp = O=C(O)[C@@H]1C[C@@H](O)CN1; Pentanoyl(4-Me) = CC(C)CCC(=O)*; Cit = NC(=O)NCCC[C@H](N)C(=O)O; Propanoyl(3-OEt) = CCOCCC(=O)*; Nva = CCC[C@H](N)C(=O)O; Pentanoyl = CCCCC(=O)*

Lab note: need Kd with human uPAR (uPAR-Fc) (Homo sapiens) for entry CCCCC(=O)N[C@@H](C)C(=O)N[C@@H](CCCNC(N)=O)C(=O)N[C@@H](CCC(N)=O)C(=O)N[C@@H](Cc1ccc(O)cc1)C(=O)N[C@@H](Cc1ccccc1)C(=O)N1CCC[C@H]1C(=O)N1C[C@H](O)C[C@H]1C(=O)N[C@H](C(=O)N[C@@H](CCC)C(=O)N[C@@H](CSC)C(N)=O)[C@@H](C)CC [UPAR-205] (Pentanoyl-A[Cit]QYFP[Hyp]I[Nva]C(Me)-NH2) , please look it up.
> 100 nM

Lab note: need Kd with human uPAR (uPAR-Fc) (Homo sapiens) for entry CC[C@H](C)[C@@H]1NC(=O)[C@@H](C)NC(=O)[C@@H]2CCCN2C(=O)[C@H](Cc2ccc(O)cc2)NC(=O)[C@H](Cc2ccc(O)cc2)NC(=O)[C@H](CCC(N)=O)NC(=O)[C@H](CCCNC(N)=O)NC(=O)[C@@H](NC(=O)CCC(C)C)CSSC[C@@H](C(N)=O)NC(=O)[C@H](CC(C)C)NC1=O [UPAR-343] ({Pentanoyl(4-Me)}-C[Cit]QYYP[dA]ILC-NH2; disulfide 1-10) , please look it up.
10 to 100 nM

Lab note: need Kd with human uPAR (uPAR-Fc) (Homo sapiens) for entry CCOCCC(=O)N[C@H]1CSSC[C@@H](C(N)=O)NC(=O)[C@H](CC(C)C)NC(=O)[C@H]([C@@H](C)CC)NC(=O)[C@@H](C)NC(=O)[C@@H]2CCCN2C(=O)[C@H](Cc2ccccc2)NC(=O)[C@H](Cc2ccc(O)cc2)NC(=O)[C@H](CCC(N)=O)NC(=O)[C@H](CCCNC(N)=O)NC1=O [UPAR-172] ({Propanoyl(3-OEt)}-C[Cit]QYFP[dA]ILC-NH2; disulfide 1-10) , please look it up.
1.58 to 10 nM

====

*1 amine or outer side, *2 acyl side, *3 side chain or, on linkers, in order; H or OH if unused. Where a SMILES comes first, the peptide text is derived from it. Bridges are numbered along the chain shown (N, C = ends). [ ]: non-standard residue; d: D form. The star is where a group is joined. DOTA = O=C(O)CN1CCN(CC(=O)O)CCN(CC(=O)*)CCN(CC(=O)O)CC1; X5 = O=C(O)CN1CCN(CC(=O)O)CCN([C@H](CCC(=O)*)C(=O)O)CC1; Phe(4-guanidino) = N=C(N)Nc1ccc(C[C@H](N)C(=O)O)cc1; Pro(trans-4-F) = O=C(O)[C@@H]1C[C@@H](F)CN1; Pro(cis-4-F) = O=C(O)[C@@H]1C[C@H](F)CN1; Dopa = N[C@@H](Cc1ccc(O)c(O)c1)C(=O)O; cisHyp = O=C(O)[C@@H]1C[C@H](O)CN1; Hyp = O=C(O)[C@@H]1C[C@@H](O)CN1; Gly(cBu) = N[C@H](C(=O)O)C1CCC1; Pentanoyl(4-Me) = CC(C)CCC(=O)*; Cit = NC(=O)NCCC[C@H](N)C(=O)O; Butoxycarbonyl = CCCCOC(=O)*; NMeC = CN[C@@H](CS)C(=O)O; Nva = CCC[C@H](N)C(=O)O; Pentanoyl = CCCCC(=O)*; CO = O=C([*:1])[*:2]; βAla = NCCC(=O)O; NHBu = CCCCN*
A short record of IC50 observed with uPAR-expressing HEC-265 human endometrial adenocarcinoma cells (Homo sapiens) follows.
Sequence (Q03405 23-335): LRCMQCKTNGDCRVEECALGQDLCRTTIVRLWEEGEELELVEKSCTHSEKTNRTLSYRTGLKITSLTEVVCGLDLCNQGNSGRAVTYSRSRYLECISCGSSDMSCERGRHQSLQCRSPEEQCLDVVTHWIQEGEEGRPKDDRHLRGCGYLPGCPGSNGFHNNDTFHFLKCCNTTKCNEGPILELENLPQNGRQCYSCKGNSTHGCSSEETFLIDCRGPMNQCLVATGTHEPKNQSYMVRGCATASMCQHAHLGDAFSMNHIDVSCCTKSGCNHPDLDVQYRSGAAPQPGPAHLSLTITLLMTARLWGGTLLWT

Value lookup for IC50; key = CCCCC(=O)N[C@H]1CSSC[C@@H](C(N)=O)NC(=O)[C@H](CCC)NC(=O)[C@H]([C@@H](C)CC)NC(=O)[C@@H]2C[C@@H](O)CN2C(=O)[C@@H]2C[C@H](O)CN2C(=O)[C@H](Cc2ccccc2)NC(=O)[C@H](Cc2ccc(O)cc2)NC(=O)[C@H](CCCCNC(=O)CN2CCN(CC(=O)O)CCN(CC(=O)O)CCN(CC(=O)O)CC2)NC(=O)[C@H]([C@@H](C)O)NC1=O [UPAR-388] (Pentanoyl-CTK(DOTA)YF[cisHyp][Hyp]I[Nva]C-NH2; disulfide 1-10)
≤ 10 nM

Value lookup for IC50; key = CCCCOC(=O)N[C@H]1CSSC[C@@H](C(N)=O)NC(=O)[C@H](CCC)NC(=O)[C@H]([C@@H](C)CC)NC(=O)[C@@H]2C[C@@H](O)CN2C(=O)[C@@H]2C[C@@H](O)CN2C(=O)[C@H](Cc2ccccc2)NC(=O)[C@H](Cc2ccc(O)cc2)NC(=O)[C@H](CCCCNC(=O)CN2CCN(CC(=O)O)CCN(CC(=O)O)CCN(CC(=O)O)CC2)NC(=O)[C@H]([C@@H](C)O)NC1=O [UPAR-128] (Butoxycarbonyl-CTK(DOTA)YF[Hyp][Hyp]I[Nva]C-NH2; disulfide 1-10)
≤ 10 nM

Value lookup for IC50; key = CCCCNC(=O)N[C@H]1CSSC[C@@H](C(N)=O)NC(=O)[C@H](CC(C)C)NC(=O)[C@H]([C@@H](C)CC)NC(=O)[C@@H](C)NC(=O)[C@@H]2CCCN2C(=O)[C@H](Cc2ccccc2)NC(=O)[C@H](Cc2ccc(O)cc2)NC(=O)[C@H](CCC(N)=O)NC(=O)[C@H](CCCNC(N)=O)NC1=O [UPAR-286] ({NHBu-CO}-C[Cit]QYFP[dA]ILC-NH2; disulfide 1-10)
≤ 10 nM

Value lookup for IC50; key = CCCCOC(=O)N[C@H]1CSSC[C@@H](C(N)=O)NC(=O)[C@H](CCC)NC(=O)[C@H]([C@@H](C)CC)NC(=O)[C@@H]2C[C@@H](O)CN2C(=O)[C@@H]2C[C@H](F)CN2C(=O)[C@H](Cc2ccccc2)NC(=O)[C@H](Cc2ccc(O)c(O)c2)NC(=O)[C@H](CCCCNC(=O)CC[C@H](C(=O)O)N2CCN(CC(=O)O)CCN(CC(=O)O)CC2)NC(=O)[C@H]([C@@H](C)O)NC1=O [UPAR-444] (Butoxycarbonyl-CTK(X5)[Dopa]F[Pro(cis-4-F)][Hyp]I[Nva]C-NH2; disulfide 1-10)
≤ 10 nM

Value lookup for IC50; key = CC(C)CCC(=O)N[C@H]1CSSC[C@@H](C(N)=O)NC(=O)[C@H](CC(C)C)NC(=O)[C@H](C2CCC2)NC(=O)[C@@H](C)NC(=O)[C@@H]2CCCN2C(=O)[C@H](Cc2ccccc2)NC(=O)[C@H](Cc2ccc(O)cc2)NC(=O)[C@H](CCC(N)=O)NC(=O)[C@H](CCCNC(N)=O)NC1=O [UPAR-453] ({Pentanoyl(4-Me)}-C[Cit]QYFP[dA][Gly(cBu)]LC-NH2; disulfide 1-10)
≤ 10 nM

Value lookup for IC50; key = CCCCOC(=O)N[C@H]1CSSC[C@@H](C(N)=O)NC(=O)[C@H](CCC)NC(=O)[C@H]([C@@H](C)CC)NC(=O)[C@@H]2C[C@@H](F)CN2C(=O)[C@@H]2CCCN2C(=O)[C@H](Cc2ccccc2)NC(=O)[C@H](Cc2ccc(O)cc2)NC(=O)[C@H](CCCCNC(=O)CN2CCN(CC(=O)O)CCN(CC(=O)O)CCN(CC(=O)O)CC2)NC(=O)[C@H]([C@@H](C)O)NC1=O [UPAR-289] (Butoxycarbonyl-CTK(DOTA)YFP[Pro(trans-4-F)]I[Nva]C-NH2; disulfide 1-10)
≤ 10 nM

Value lookup for IC50; key = CCC[C@@H]1NC(=O)[C@H]([C@@H](C)CC)NC(=O)[C@@H]2C[C@@H](O)CN2C(=O)[C@@H]2CCCN2C(=O)[C@H](Cc2ccccc2)NC(=O)[C@H](Cc2ccc(O)cc2)NC(=O)[C@H](CCC(N)=O)NC(=O)[C@H](CCCNC(N)=O)NC(=O)[C@@H](N(C)C(=O)[C@H](CC(C)C)NC(=O)CN2CCN(CC(=O)O)CCN(CC(=O)O)CCN(CC(=O)O)CC2)CSSC[C@@H](C(N)=O)NC1=O [UPAR-142] ({DOTA}-L[NMeC][Cit]QYFP[Hyp]I[Nva]C-NH2; disulfide 2-11)
≥ 126 nM

Value lookup for IC50; key = CCCCC(=O)N[C@H]1CSSC[C@@H](C(N)=O)NC(=O)[C@H](CCC)NC(=O)[C@H]([C@@H](C)CC)NC(=O)[C@@H]2C[C@@H](O)CN2C(=O)[C@@H]2CCCN2C(=O)[C@H](Cc2ccccc2)NC(=O)[C@H](Cc2ccc(NC(=N)N)cc2)NC(=O)[C@H](CCCCNC(=O)CN2CCN(CC(=O)O)CCN(CC(=O)O)CCN(CC(=O)O)CC2)NC(=O)[C@H](CCCNC(N)=O)NC1=O [UPAR-149] (Pentanoyl-C[Cit]K(DOTA)[Phe(4-guanidino)]FP[Hyp]I[Nva]C-NH2; disulfide 1-10)
≤ 10 nM

Value lookup for IC50; key = CCCCC(=O)N[C@H]1CSSC[C@@H](C(=O)NCCC(N)=O)NC(=O)[C@H](CCC)NC(=O)[C@H]([C@@H](C)CC)NC(=O)[C@@H]2C[C@@H](O)CN2C(=O)[C@@H]2CCCN2C(=O)[C@H](Cc2ccccc2)NC(=O)[C@H](Cc2ccc(O)cc2)NC(=O)[C@H](CCC(N)=O)NC(=O)[C@H](CCCNC(N)=O)NC1=O [UPAR-353] (Pentanoyl-C[Cit]QYFP[Hyp]I[Nva]C[βAla]-NH2; disulfide 1-10)
12.6 to 31.6 nM
